- test_method_notes: mouse acute toxicity test of rolipram
- condition_label: in vivo, po, read-out: ED50 Value (acute toxicity)
measured_parameter: LD50 (mg/kg)
Numeric only. Scale: mg/kg

Look at this compound and give its reported LD50. COc1ccc(C2CNC(=O)C2)cc1OC1CCCC1 (racemic) [(±) Rolipram] 4000
